Test: Metabolic stability in guinea pig liver microsome assessed as half life
Format: ADME, Cavia porcellus
Conditions: liver microsomes
Reported half-life is given for each of the following compounds.
The reply should be a number in min, with the unit left off.

Example entries begin here.
In [3]: df
Out[3]:
                                     smiles  quantityunit  recordedresult
0  CC(C)(C(=O)NCc1ccc(Cl)c(C(=O)Nc2ccc(-c3nc4cc(C(F)(F)F)ccc4[nH]3)cc2)c1)C(F)(F)F           min             103
1  O=C(Nc1ccc(-c2nc3cc(C(F)(F)F)ccc3[nH]2)cc1)c1cc(CNC(=O)C2(C(F)(F)F)CC2)ccc1Cl           min             185
2  CC(C)(C(=O)NCc1ccc(Cl)c(C(=O)Nc2ccc(Cc3nc4cc(C(F)(F)F)ccc4[nH]3)cc2)c1)C(F)(F)F           min            49.3
3  O=C(Nc1ccc(-c2nc3cc(C(F)(F)F)ccc3[nH]2)cc1)c1cc(CNC(=O)C2(C(F)(F)F)CCC2)ccc1Cl           min             8.5

Let's switch to this compound now.
Q) half-life lookup needed for CC(C)(C)C(=O)NCc1ccc(Cl)c(C(=O)Nc2ccc(-c3nc4cc(C(F)(F)F)ccc4[nH]3)cc2)c1 , thanks.
A) 4.6

* * *

Test: Half life in guinea pig at 20 mg/kg, po
Assay type: ADME, organism-based, Cavia porcellus
Conditions: in vivo
measuredParameter: half-life (h)
Express the result in h but write the number alone.

In [3]: df
Out[3]:
                                     smiles  measuredparameter  recordedresult
0  O=C(Nc1ccc(-c2nc3cc(C(F)(F)F)ccc3[nH]2)cc1)c1cc(CNC(=O)C2(C(F)(F)F)CCC2)ccc1Cl          half-life             5.7

The record that follows has no half-life shown yet.
Q) # get_value(readout='half-life', item= O=C(Nc1ccc(-c2nc3cc(C(F)(F)F)ccc3[nH]2)cc1)c1cc(CNC(=O)C2(C(F)(F)F)CC2)ccc1Cl )
A) 4.8

* * *

Experiment: Volume of distribution at steady state in guinea pig at 2 mg/kg, iv
Assay type: ADME, organism-based, Cavia porcellus
Conditions: in vivo, read-out: Vdss
This listing pairs compounds with measured Vd.
Numbers only; they are read as L/kg.

                                     smiles  measuredparameter  recordedresult
0  O=C(Nc1ccc(-c2nc3cc(C(F)(F)F)ccc3[nH]2)cc1)c1cc(CNC(=O)C2(C(F)(F)F)CCC2)ccc1Cl                 Vd              10

Q) Quick check: Vd of O=C(Nc1ccc(-c2nc3cc(C(F)(F)F)ccc3[nH]2)cc1)c1cc(CNC(=O)C2(C(F)(F)F)CC2)ccc1Cl ?
A) 4.1

* * *

Assay: Metabolic stability in human liver microsome assessed as intrinsic clearance
Type: ADME
Details: liver microsomes, read-out: CLH
measuredParameter: log10(microsomal CLint) (log10 of the value in µL/min/mg)
Hi team, quick reminder: these entries are log10 of microsomal CLint (µL/min/mg).

                                     smiles        measuredparameter  recordedresult
0  CC(C)(C(=O)NCc1ccc(Cl)c(C(=O)Nc2ccc(Cc3nc4cc(C(F)(F)F)ccc4[nH]3)cc2)c1)C(F)(F)F  log10(microsomal CLint)            1.44
1  CC(C)(C)C(=O)NCc1ccc(Cl)c(C(=O)Nc2ccc(-c3nc4cc(C(F)(F)F)ccc4[nH]3)cc2)c1  log10(microsomal CLint)            2.39
2  O=C(Nc1ccc(-c2nc3cc(C(F)(F)F)ccc3[nH]2)cc1)c1cc(CNC(=O)C2(C(F)(F)F)CC2)ccc1Cl  log10(microsomal CLint)            1.66
3  CC(C)(C(=O)NCc1ccc(Cl)c(C(=O)Nc2ccc(-c3nc4cc(C(F)(F)F)ccc4[nH]3)cc2)c1)C(F)(F)F  log10(microsomal CLint)            2.31

Now look at this one.
Q) Field request: log10(microsomal CLint) | item: O=C(Nc1ccc(-c2nc3cc(C(F)(F)F)ccc3[nH]2)cc1)c1cc(CNC(=O)C2(C(F)(F)F)CCC2)ccc1Cl
A) 2.50
